- experimentalSystem: human mGlu2 (Homo sapiens, UniProt Q14416)
- Construct: expressed in transfected cells
- Sequence (Q14416 19-872): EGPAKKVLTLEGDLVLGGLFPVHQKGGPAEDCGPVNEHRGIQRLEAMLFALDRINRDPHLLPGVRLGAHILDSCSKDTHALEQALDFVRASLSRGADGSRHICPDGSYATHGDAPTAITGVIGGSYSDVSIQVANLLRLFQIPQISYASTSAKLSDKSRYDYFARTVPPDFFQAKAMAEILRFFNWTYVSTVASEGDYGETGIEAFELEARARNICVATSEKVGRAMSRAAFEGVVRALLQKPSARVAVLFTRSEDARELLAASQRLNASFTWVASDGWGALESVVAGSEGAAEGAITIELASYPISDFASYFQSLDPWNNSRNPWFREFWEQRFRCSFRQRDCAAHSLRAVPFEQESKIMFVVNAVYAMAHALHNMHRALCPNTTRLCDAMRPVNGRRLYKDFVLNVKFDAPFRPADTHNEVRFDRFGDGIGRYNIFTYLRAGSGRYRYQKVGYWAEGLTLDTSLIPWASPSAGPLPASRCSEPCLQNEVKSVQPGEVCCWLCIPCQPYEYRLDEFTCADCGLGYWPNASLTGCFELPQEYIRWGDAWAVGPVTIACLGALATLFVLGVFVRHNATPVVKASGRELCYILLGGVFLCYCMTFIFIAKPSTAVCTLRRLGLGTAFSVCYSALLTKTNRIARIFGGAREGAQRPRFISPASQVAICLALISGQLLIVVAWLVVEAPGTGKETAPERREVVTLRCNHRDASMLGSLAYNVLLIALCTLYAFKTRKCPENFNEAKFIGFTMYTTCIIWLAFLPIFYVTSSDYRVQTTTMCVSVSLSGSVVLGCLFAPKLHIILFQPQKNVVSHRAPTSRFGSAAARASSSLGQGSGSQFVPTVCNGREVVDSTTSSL
- assay: Human mGlu2 GIRK thallium flux assay
- Type: cell-based
- experimentalContext: HEK293 cells, EC80 glutamate, triplicate assays (14g duplicate)
measureName: IC50 (nM)

INSERT INTO measurements (molecule, recordedmeasurement) VALUES
  ('COc1cc(CN2CCc3c(-c4ccc(C)cc4F)cc(C(N)=O)nc3C2)ccn1 [14c]', 129),
  ('COc1ccc(-c2cc(C(N)=O)nc3c2CCN(Cc2ccnc(OC)c2)C3)c(F)c1 [14a]', 39),
  ('COc1cc(CN2CCc3c(-c4ccc(F)cc4Cl)cc(C(N)=O)nc3C2)ccn1 [14g]', 87),
  ('COc1cc(CN2CCc3c(-c4ccc(F)cc4F)cc(C(N)=O)nc3C2)ccn1 [14b]', 24),
  ('COc1ccc(-c2cc(C(N)=O)nc3c2CCN(Cc2cnc(OC)nc2)C3)c(F)c1 [14f]', 318);

P. COc1ncc(CN2CCc3c(-c4ccc(C)cc4F)cc(C(N)=O)nc3C2)cn1 [14e]
Q. COc1cc(CN2CCc3c(-c4ccc(F)cc4OC)cc(C(N)=O)nc3C2)ccn1 [14d]
Query block: Given the two records P and Q , choose the one whose IC50 value is lower. Reply briefly: the label of your chosen item.
Result block: Q
(Q: 39 nM, P: 106 nM)
